%Inh values for the compounds below.
test system: DDR1; settings: concentration: 1 μM, replicates: in singlicate; n = 1;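 further: KINOMEscan kinase panel screen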
QUANTITY NAME: %Inh

INSERT INTO measurements (compound, recorded_value) VALUES
  ('CN(C)c1ncnc2nc[nH]c12', '0%'),
  ('Nc1ncc(-c2ccc3nccc(-c4ccncc4)c3c2)cc1S(=O)(=O)N1CCCCC1', '2%'),
  ('O=C1NC(=O)C(c2ccccc2Cl)=C1Nc1cccc(Cl)c1', '9%'),
  ('COc1cc(Nc2nccc(N3CCC(NC(=O)Nc4ccc5c(c4)OCO5)C3)n2)cc(OC)c1OC (stereo not drawn)', '0%'),
  ('O=C(Nc1c(F)cccc1F)c1cc(C(=O)c2ccccc2F)c[nH]1', '0%'),
  ('CN(C)CCOc1ccc(-c2cc(-c3ccc(Cl)c(O)c3)c(-c3ccncc3)[nH]2)cc1.Cl.Cl', '56%'),
  ('Fc1cc(Cl)ccc1Nc1ccnc2cc(-c3ccc(CN4CCOCC4)o3)ccc12', '97.9%'),
  ('O=C(Nc1n[nH]c2nc(-c3ccccc3O)ccc12)C1CC1', '1%'),
  ('Cc1ccc(NC(=O)c2ccnc(N3CCCCC3)c2)cc1-c1ccc(C(=O)NCC2CC2)cc1', '99%');

----------
%Inh values for the molecules below.
test system: CTK; construct: gene MATK; conditions: concentration: 1 μM, replicates: in singlicate; n = 1
QUANTITY NAME: %Inh (%)

INSERT INTO results (molecule, quantity_name, recorded_value) VALUES
  ('CC(=O)Nc1cn2nc(Oc3cccc(NC(=O)c4cccc(C(F)(F)F)c4)c3)ccc2n1', '%Inh', 0),
  ('Cc1ccc(NC(=O)c2ccc(Cl)c(Cl)c2)cc1-c1ccc(C(=O)Nc2ccncc2)cc1', '%Inh', 0),
  ('Cn1cc(-c2cnc(N)c3c(-c4ccc5c(c4)CCN5C(=O)Cc4ccccc4)csc23)cn1', '%Inh', 62),
  ('N#Cc1cnc2cc(-c3cnc(CNCCN4CCOCC4)s3)ccc2c1Nc1ccc(Oc2ccccc2)cc1', '%Inh', 26),
  ('COC(=O)Nc1nc2ccc(Oc3ccc(CC(=O)Nc4cc(C(F)(F)F)ccc4F)cc3)cc2[nH]1', '%Inh', 0),
  ('COc1ccc(C)c(Nc2ccnc(Nc3ccc(-c4cnc[nH]4)cc3)n2)c1.Cl', '%Inh', 0),
  ('CN(C)CCOc1ccc(-c2cc(-c3ccc(Cl)c(O)c3)c(-c3ccncc3)[nH]2)cc1.Cl.Cl', '%Inh', 3),
  ('CCNc1nccc(-c2c(-c3ccc(F)cc3)ncn2C2CCN(C)CC2)n1', '%Inh', 100),
  ('CC(C)c1nc(-c2cccc(NS(=O)(=O)c3c(F)cccc3F)c2)c(-c2ccnc(Nc3ccc(N4CCOCC4)nc3)n2)s1.Cl', '%Inh', 37),
  ('c1ccc(Oc2ccc(Nc3ccnc4cc(-c5ccc(CN6CCCCC6)o5)ccc34)cc2)nc1', '%Inh', 5),
  ('Cc1cccc(Nc2nc(NCCN)ncc2C(N)=O)c1', '%Inh', 0),
  ('COc1cc(Nc2nccc(N3CCC(NS(=O)(=O)c4ccc(NC(C)=O)cc4)CC3)n2)cc(OC)c1OC', '%Inh', 0),
  ('O=C(Nc1n[nH]c2nc(-c3ccccc3O)ccc12)C1CC1', '%Inh', 36),
  ('Cl.Cl.NC(CNC(=O)c1cc(Br)c(-c2ccnc3[nH]ccc23)s1)c1ccccc1 (centres unmarked)', '%Inh', 0),
  ('Cl.O=C(Nc1ccc(Oc2ccc3[nH]c(NC(=O)c4ccco4)nc3c2)cc1)Nc1cc(C(F)(F)F)ccc1F', '%Inh', 6),
  ('COc1cc(Nc2ccnc3cc(-c4ccncc4)ccc23)cc(OC)c1OC.Cl', '%Inh', 0),
  ('Cc1ccc(O)cc1Nc1ccnc2ccc(C(C)(C)C)cc12', '%Inh', 21);

----------
tested on: MAPKAPK2; details: concentration: 1 μM, replicates: in singlicate; n = 1
%Inh values for the molecules below.
QUANTITY NAME: %Inh (%)

INSERT INTO results (molecule, recorded_value) VALUES
  ('COc1cc(Nc2nccc(N3CCC(NS(=O)(=O)c4ccc(NC(C)=O)cc4)CC3)n2)cc(OC)c1OC', 0),
  ('COc1ccc(NC(=O)c2ccoc2)cc1-c1ccc(C(=O)NCC2CC2)cc1', 0),
  ('COc1cccc(NC(=O)NCCNc2ccnc(Nc3ccc(F)cc3)n2)c1', 20),
  ('COc1cc(Nc2nccc(N3CCC(NC(=O)Nc4ccc5c(c4)OCO5)C3)n2)cc(OC)c1OC (centres unmarked)', 0),
  ('Cc1ccc(O)cc1Nc1ccnc2cc(-c3ccc(CN4CCCCC4)o3)ccc12', 0),
  ('CC(C)(C)c1ccc(C(=O)Nc2cn3cc(-n4ccnc4)ccc3n2)cc1', 0),
  ('COC(=O)Nc1nc2cc(Oc3ccc(NC(=O)Nc4cccc(SC)c4)cc3)ccc2[nH]1.Cl', 0),
  ('Cc1ccc(Nc2ccnc(Nc3ccc(C)c(F)c3)n2)cc1O.Cl', 0),
  ('COc1cccc2c(-c3ccncc3)c(-c3ccc(F)cc3)nn12', 13),
  ('COc1cccc(C2=C(Nc3cccc(O)c3)C(=O)NC2=O)c1', 17),
  ('Cl.Cl.NC(CNC(=O)c1cc(Br)c(-c2ccnc3[nH]ccc23)s1)c1ccccc1 (centres unmarked)', 0),
  ('Cc1ccc(C)c(NC(=O)Nc2ccc(C)c(-c3ccc(C(=O)Nc4ccncc4)cc3)c2)c1', 5),
  ('CC(C)c1nc(-c2cccc(NS(=O)(=O)c3c(F)cccc3F)c2)c(-c2ccnc(Nc3ccc(N4CCOCC4)nc3)n2)s1.Cl', 0),
  ('O=C1NC(=O)C(c2ccccc2Cl)=C1Nc1cccc(Cl)c1', 37),
  ('Cc1cc(-c2c(-c3ccc(F)cc3)ncn2CCCN2CCOCC2)nc(N)n1', 0),
  ('Cn1cc(-c2cnc(N)c3c(-c4ccc5c(c4)CCN5C(=O)Cc4ccccc4)csc23)cn1', 0),
  ('CN(c1ccc(NC(=O)N2CCN(CCCN3CCOCC3)CC2)cc1)c1ccnc(Nc2ccc(CS(C)(=O)=O)cc2)n1.Cl', 0);

----------
system: CLK4; details: concentration: 1 μM, replicates: in singlicate; n = 1
Output satisfied for %Inh not less than 30%; output not satisfied otherwise.

INSERT INTO measurements (compound, class_name) VALUES
  ('Cl.N#CCc1ccc(Nc2nccc(Nc3ccc(Oc4ccccc4)cc3)n2)cc1', 'not satisfied'),
  ('CC(C)(C)c1ccc(C(=O)Nc2cn3cc(-n4ccnc4)ccc3n2)cc1', 'satisfied'),
  ('Cc1cccc(Nc2nc(N[C@H]3CCCC[C@H]3N)ncc2C(N)=O)c1.Cl', 'not satisfied'),
  ('NCCC(NC(=O)c1cc(Br)c(-c2ccnc3[nH]ccc23)s1)c1ccccc1.O=C(O)C(F)(F)F.O=C(O)C(F)(F)F (centres unmarked)', 'satisfied'),
  ('Nc1ncc(-c2cn[nH]c2)c2scc(-c3ccc4c(c3)CCN4C(=O)Cc3ccccc3)c12', 'satisfied'),
  ('Cn1cc(-c2ccc3c(c2)CCN3C(=O)Cc2cc(F)cc(F)c2F)c2c(N)ncnc21', 'not satisfied'),
  ('Nc1ncc(-c2ccc3nccc(-c4ccncc4)c3c2)cc1S(=O)(=O)N1CCCCC1', 'satisfied'),
  ('O=C1NC(=O)C(c2ccccc2Cl)=C1Nc1cccc(Cl)c1', 'not satisfied');

----------
tested on: STK33; conditions: concentration: 1 μM, replicates: in singlicate; n = 1
QUANTITY NAME: %Inh (%)

INSERT INTO measurements (chemical_smiles, quantity_name, recorded_value) VALUES
  ('O=C(Nc1c(F)cccc1F)c1cc(C(=O)c2ccccc2F)c[nH]1', '%Inh', 16),
  ('Fc1cc(Cl)ccc1Nc1ccnc2cc(-c3ccc(CN4CCOCC4)o3)ccc12', '%Inh', 6),
  ('Cc1ccc(NC(=O)c2cccc(N3CCCCC3)c2)cc1-c1ccc(C(=O)NCC2CC2)cc1', '%Inh', 0),
  ('O=C(Nc1n[nH]c2nc(-c3ccccc3)ccc12)C1CC1', '%Inh', 0),
  ('Cc1ccc(C)c(NC(=O)Nc2ccc(C)c(-c3ccc(C(=O)Nc4ccncc4)cc3)c2)c1', '%Inh', 3),
  ('CNc1nccc(-c2ccc3c(N)n[nH]c3c2)n1', '%Inh', 0),
  ('Cl.O=C(Nc1ccc(Oc2ccc3[nH]c(NC(=O)c4ccco4)nc3c2)cc1)Nc1cc(C(F)(F)F)ccc1F', '%Inh', 76);

----------
test system: EGFR; conditions: concentration: 1 μM, replicates: in singlicate; n = 1
QUANTITY NAME: %Inh (%)

INSERT INTO results (compound, assay_system, quantity_name, unit_of_measurement, recorded_value) VALUES
  ('Nc1ncc(-c2ccc3nccc(-c4ccncc4)c3c2)cc1S(=O)(=O)N1CCCCC1 [GSK1693850]', 'EGFR', '%Inh', '%', 1),
  ('COC(=O)Nc1nc2ccc(Oc3ccc(CC(=O)Nc4cc(C(F)(F)F)ccc4F)cc3)cc2[nH]1 [GW680903]', 'EGFR', '%Inh', '%', 30),
  ('O=C(O)C(F)(F)F.O=c1[nH]ccc2nc(N[C@@H]3CCNC3)nc(Nc3cc(Cl)cc(Cl)c3)c12 [GSK2188764]', 'EGFR', '%Inh', '%', 25),
  ('Nc1ncc(-c2cn[nH]c2)c2scc(-c3ccc4c(c3)CCN4C(=O)Cc3ccccc3)c12 [GSK2593067]', 'EGFR', '%Inh', '%', 25);

Values from paper PMC5540273
